Target: Recombinant IKKβ (Homo sapiens)
Construct: purchased Millipore, Dundee, UK
Sequence (O14920 1-756): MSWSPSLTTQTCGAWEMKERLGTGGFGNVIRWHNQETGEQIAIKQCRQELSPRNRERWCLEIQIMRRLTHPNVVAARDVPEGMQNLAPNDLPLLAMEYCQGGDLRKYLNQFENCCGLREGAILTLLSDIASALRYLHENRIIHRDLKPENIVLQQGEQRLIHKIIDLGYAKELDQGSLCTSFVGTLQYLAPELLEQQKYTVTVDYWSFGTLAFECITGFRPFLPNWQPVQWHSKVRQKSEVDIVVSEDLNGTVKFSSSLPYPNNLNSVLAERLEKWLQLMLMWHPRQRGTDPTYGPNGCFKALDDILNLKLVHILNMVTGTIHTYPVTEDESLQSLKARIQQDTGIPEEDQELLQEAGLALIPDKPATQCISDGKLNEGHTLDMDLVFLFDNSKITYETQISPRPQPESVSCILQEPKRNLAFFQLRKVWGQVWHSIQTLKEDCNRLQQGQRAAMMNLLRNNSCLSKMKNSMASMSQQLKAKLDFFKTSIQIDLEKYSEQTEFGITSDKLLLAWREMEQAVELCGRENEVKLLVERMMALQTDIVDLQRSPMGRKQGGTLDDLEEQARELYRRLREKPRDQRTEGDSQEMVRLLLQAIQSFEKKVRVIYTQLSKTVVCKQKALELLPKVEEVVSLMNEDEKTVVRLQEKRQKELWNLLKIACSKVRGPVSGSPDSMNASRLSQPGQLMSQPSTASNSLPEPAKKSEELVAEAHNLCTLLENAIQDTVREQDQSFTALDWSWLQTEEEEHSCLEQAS
Experiment: DELFIA IKKβ kinase assay (apparent Ki, Cheng-Prusoff)
Format: biochemical
Conditions: DELFIA assay (first line of an example)
measurementType: Ki (nM)

Examples with answers:
Nc1n[nH]c2ccc(-c3ccnc4[nH]c(Cc5ccccc5)cc34)cc12; 111
COC(=O)Nc1cc(-c2cc(-c3ccc(C(N)=O)cc3)c3[nH]nc(N)c3c2)ccn1; 3790
Nc1n[nH]c2ccc(-c3ccnc(NC(=O)CC4CCCCC4)c3)cc12; 4200
CC(C)(C)C#Cc1cc(-c2ccnc(Nc3cn[nH]c3)c2)cc2c(N)n[nH]c12; 280
Nc1n[nH]c2ccc(-c3ccnc4[nH]c(CCN5CCCCC5)cc34)cc12; 1380

P = COCCNCc1cc2c(-c3ccc4[nH]nc(N)c4c3)ccnc2[nH]1
Q = COC(=O)Nc1cc(-c2cc(-c3ccc(O)cc3)c3[nH]nc(N)c3c2)ccn1
Prompt: Which one would you say has the larger Ki value: P , or Q ? Record your answer as the label of the chosen record.
Completion: P
(P: 389 nM, Q: 83 nM)
